Value source: patent US20250332300A1

Reported values of IC50 for individual entries
target: human HER2 (23-652) (Homo sapiens, UniProt P04626); test: TR-FRET competition assay for peptide potency, human HER2; type: binding; set-up: towards human HER2 (23-652) and mouse HER2 (23-653); made in house; host or cells: mammalian cells; conditions: read-out: huHER2 TR-FRET IC50
Positions of bridges follow the written chain, without caps; N, C: chain ends. Non-standard residues stand in square brackets, D forms with d. Residues, ends and D or L forms follow the SMILES beside them. Trp(5-OH) = N[C@@H](Cc1c[nH]c2ccc(O)cc12)C(=O)O; NMePhe(4-F) = CN[C@@H](Cc1ccc(F)cc1)C(=O)O; NMehPhe = CN[C@@H](CCc1ccccc1)C(=O)O; NMeAoc(2) = CCCCCC[C@H](NC)C(=O)O; Aad = N[C@@H](CCCC(=O)O)C(=O)O; Gly(cPr) = N[C@H](C(=O)O)C1CC1; NMeK = CN[C@@H](CCCCN)C(=O)O; NMeDap = CN[C@@H](CN)C(=O)O
The reply should contain only the number, in nM.

molecule	val
CC(=O)N[C@H]1CCCC(=O)NC[C@@H](C(=O)N(C)[C@@H](Cc2ccc(F)cc2)C(=O)N[C@@H](CCCCNC(=O)CN2CCN(CC(=O)O)CCN(CC(=O)O)CCN(CC(=O)O)CC2)C(N)=O)N(C)C(=O)[C@H]([C@H](C)O)NC(=O)[C@H](Cc2c[nH]c3ccccc23)NC(=O)[C@H](Cc2c[nH]c3ccc(O)cc23)NC(=O)[C@H](CCCCNC(=O)CO)N(C)C(=O)[C@H](CCc2ccccc2)N(C)C(=O)[C@H](CO)NC(=O)[C@H](Cc2ccc(O)cc2)NC1=O [Example B6]	0.3
CC(=O)NCCCC[C@H]1C(=O)N[C@@H](Cc2c[nH]c3ccc(O)cc23)C(=O)N[C@@H](Cc2c[nH]c3ccccc23)C(=O)N[C@@H](C2CC2)C(=O)N(C)[C@H](C(=O)N(C)[C@@H](Cc2ccc(F)cc2)C(=O)N2CCC[C@H]2C(N)=O)CNC(=O)CCC[C@H](NC(C)=O)C(=O)N[C@@H](Cc2ccc(O)cc2)C(=O)N[C@@H](CO)C(=O)N(C)[C@@H](CCc2ccccc2)C(=O)N1C [Example A2]	0.3
CC(=O)NCCCC[C@H]1C(=O)N[C@@H](Cc2c[nH]c3ccc(O)cc23)C(=O)N[C@@H](Cc2c[nH]c3ccccc23)C(=O)N[C@@H](C2CC2)C(=O)N(C)[C@H](C(=O)N(C)[C@@H](Cc2ccc(F)cc2)C(N)=O)CNC(=O)CCC[C@H](NC(C)=O)C(=O)N[C@@H](Cc2ccc(O)cc2)C(=O)N[C@@H](CO)C(=O)N(C)[C@@H](CCc2ccccc2)C(=O)N1C [Example A5] (Ac-[Aad]YS[NMehPhe][NMeK](Ac)[Trp(5-OH)]W[Gly(cPr)][NMeDap][NMePhe(4-F)]-NH2; lactam 1-9)	0.4

Okay, next one:
For reference, reported IC50 for CCCCCC[C@@H](C(N)=O)N(C)C(=O)[C@@H]1CNC(=O)CCC[C@H](NC(C)=O)C(=O)N[C@@H](Cc2ccc(O)cc2)C(=O)N[C@@H](CO)C(=O)N(C)[C@@H](CCc2ccccc2)C(=O)N(C)[C@@H](CCCCNC(C)=O)C(=O)N[C@@H](Cc2c[nH]c3ccc(O)cc23)C(=O)N[C@@H](Cc2c[nH]c3ccccc23)C(=O)N[C@@H](C2CC2)C(=O)N1C [Example A13] (Ac-[Aad]YS[NMehPhe][NMeK](Ac)[Trp(5-OH)]W[Gly(cPr)][NMeDap][NMeAoc(2)]-NH2; lactam 1-9) stands at 46

====

biological target: human HER2 (23-652) (Homo sapiens); test: TR-FRET competition assay for peptide potency, human HER2; type: binding; parameters: towards human HER2 (23-652) and mouse HER2 (23-653); made in house; host or cells: mammalian cells; details: huHER2 TR-FRET IC50, TR-FRET competition with Cy5 labeled peptide probe, 0.1 nM human HER2, 24 h incubation
Where a name gives a salt, the structure may show the parent alone. Starred links: 1 amine or outer side, 2 acyl side, 3 side chain; linkers in the order of their positions; H or OH if unused. Positions of bridges follow the written chain, without caps; N, C: chain ends. Non-standard residues stand in square brackets, D forms with d. Residues, ends and D or L forms follow the SMILES beside them. Trp(5-OH) = N[C@@H](Cc1c[nH]c2ccc(O)cc12)C(=O)O; NMePhe(4-F) = CN[C@@H](Cc1ccc(F)cc1)C(=O)O; NMehPhe = CN[C@@H](CCc1ccccc1)C(=O)O; Gly(cPr) = N[C@H](C(=O)O)C1CC1; NMeC = CN[C@@H](CS)C(=O)O; NMeS = CN[C@@H](CO)C(=O)O; Dap = NC[C@H](N)C(=O)O; X5 = O=C(C[*:2])[*:1]
property.name: IC50 (µM)
The reply should contain only the number, in µM.

For reference, reported IC50 for CN1C(=O)[C@H](CO)NC(=O)[C@H](Cc2ccc(O)cc2)NC(=O)[C@@H](N)CNC(=O)CSC[C@@H](C(=O)N(C)[C@@H](Cc2ccc(F)cc2)C(N)=O)N(C)C(=O)[C@H](C2CC2)NC(=O)[C@H](Cc2c[nH]c3ccccc23)NC(=O)[C@H](Cc2c[nH]c3ccc(O)cc23)NC(=O)[C@H](CO)N(C)C(=O)[C@@H]1CCc1ccccc1 [Example A53, TFA salt] (H-[Dap]YS[NMehPhe][NMeS][Trp(5-OH)]W[Gly(cPr)][NMeC][NMePhe(4-F)]-NH2; linker 1-9 via X5) stands at 0.163

====

molecular target: human HER2 (23-652) (Homo sapiens, UniProt P04626); test: Surface plasmon resonance (SPR) for assessment of peptide affinity, human HER2; assay type: binding; design: towards human HER2 (23-652) and mouse HER2 (23-653); made in house; conditions: SPR, human HER2 extracellular domain, 25° C., 1:1 binding model; read-out: huHER2-SPR-ONC KD
Counter-ions that a name gives are not always drawn. Positions of bridges follow the written chain, without caps; N, C: chain ends. Non-standard residues stand in square brackets, D forms with d. Residues, ends and D or L forms follow the SMILES beside them. *: point of attachment. Trp(5-OH) = N[C@@H](Cc1c[nH]c2ccc(O)cc12)C(=O)O; NMePhe(4-F) = CN[C@@H](Cc1ccc(F)cc1)C(=O)O; NMehPhe = CN[C@@H](CCc1ccccc1)C(=O)O; NMeAhp(2) = CCCCC[C@H](NC)C(=O)O; Aad = N[C@@H](CCCC(=O)O)C(=O)O; Gly(cPr) = N[C@H](C(=O)O)C1CC1; NMeK = CN[C@@H](CCCCN)C(=O)O; NMeDap = CN[C@@H](CN)C(=O)O; Tfa = O=C(C(F)(F)F)*
Reported values of Kd for individual entries

compound	target.of.assay	Kd
CN1C(=O)[C@H](CO)NC(=O)[C@H](Cc2ccc(O)cc2)NC(=O)[C@@H](N)Cc2cccc(c2)CC(=O)NC[C@@H](C(=O)N(C)[C@@H](Cc2ccc(F)cc2)C(N)=O)N(C)C(=O)[C@H](C2CC2)NC(=O)[C@H](Cc2c[nH]c3ccccc23)NC(=O)[C@H](Cc2c[nH]c3ccc(O)cc23)NC(=O)[C@H](CO)N(C)C(=O)[C@@H]1CCc1ccccc1 [Example A31, TFA salt]	human HER2 (23-652) (Homo sapiens, UniProt P04626)	485 nM
CC(=O)NCCCC[C@H]1C(=O)N[C@@H](Cc2c[nH]c3ccc(O)cc23)C(=O)N[C@@H](Cc2c[nH]c3ccccc23)C(=O)N[C@@H](C2CC2)C(=O)N(C)[C@H](C(=O)N(C)[C@@H](Cc2ccc(F)cc2)C(=O)N[C@@H](CCCCNC(=O)CN2CCN(CC(=O)O)CCN(CC(=O)O)CCN(CC(=O)O)CC2)C(N)=O)CNC(=O)CCC[C@H](NC(C)=O)C(=O)N[C@H](Cc2ccc(O)cc2)C(=O)N[C@H](CO)C(=O)N(C)[C@@H](CCc2ccccc2)C(=O)N1C [Example B4]	human HER2 (23-652) (Homo sapiens, UniProt P04626)	> 6000 nM
CCCCC[C@H]1C(=O)N(C)[C@@H](CCCCNC(C)=O)C(=O)N[C@@H](Cc2c[nH]c3ccc(O)cc23)C(=O)N[C@@H](Cc2c[nH]c3ccccc23)C(=O)N[C@@H](C2CC2)C(=O)N(C)[C@H](C(=O)N(C)[C@@H](Cc2ccc(F)cc2)C(N)=O)CNC(=O)CCC[C@H](NC(C)=O)C(=O)N[C@@H](Cc2ccc(O)cc2)C(=O)N[C@@H](CO)C(=O)N1C [Example A14] (Ac-[Aad]YS[NMeAhp(2)][NMeK](Ac)[Trp(5-OH)]W[Gly(cPr)][NMeDap][NMePhe(4-F)]-NH2; lactam 1-9)	human HER2 (23-652) (Homo sapiens, UniProt P04626)	1.3 nM
CC(=O)N[C@H]1CCCC(=O)NC[C@@H](C(=O)N(C)[C@@H](Cc2ccc(F)cc2)C(N)=O)N(C)C(=O)[C@H](C2CC2)NC(=O)[C@H](Cc2c[nH]c3ccccc23)NC(=O)[C@H](Cc2c[nH]c3ccc(O)cc23)NC(=O)[C@H](CCCCNC(=O)C(F)(F)F)N(C)C(=O)[C@H](CCc2ccccc2)N(C)C(=O)[C@H](CO)NC(=O)[C@H](Cc2ccc(O)cc2)NC1=O [Example A4] (Ac-[Aad]YS[NMehPhe][NMeK](Tfa)[Trp(5-OH)]W[Gly(cPr)][NMeDap][NMePhe(4-F)]-NH2; lactam 1-9)	human HER2 (23-652) (Homo sapiens, UniProt P04626)	8.9 nM

Okay, next one:
For reference, reported Kd for COCCOCCOCCOCCOCCOCCOCCOCCOCCOCCOCCOCCC(=O)N[C@H]1CCCC(=O)NC[C@@H](C(=O)N(C)[C@@H](Cc2ccc(F)cc2)C(=O)N[C@@H](CCCCNC(=O)CN2CCN(CC(=O)O)CCN(CC(=O)O)CCN(CC(=O)O)CC2)C(N)=O)N(C)C(=O)[C@H](C2CC2)NC(=O)[C@H](Cc2c[nH]c3ccccc23)NC(=O)[C@H](Cc2c[nH]c3ccc(O)cc23)NC(=O)[C@H](CCCCNC(C)=O)N(C)C(=O)[C@H](CCc2ccccc2)N(C)C(=O)[C@H](CO)NC(=O)[C@H](Cc2ccc(O)cc2)NC1=O [Example B2] stands at < 0.1 nM
